Assay text: NCI Yeast Anticancer Drug Screen. Data for the mlh1 strain (AID 171);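 note: 0% = growth of vehicle-treated control cultures of the same strain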
Conditions: S. cerevisiae mlh1 strain growth inhibition; at 100.0 µM; hits give high values
The panel holds about 79,000 compounds, 15% with a hit somewhere; the sample as a whole holds those more often.
Given measured growth inhibition, output TRUE if it is greater than or equal to 40% and FALSE if not.

| Molecule | Group |
| --- | --- |
| O=C(c1c(F)c(F)c(F)c(F)c1F)c1c(F)c(F)c(F)c(F)c1F | TRUE |
| O=C1c2ccccc2-c2ccc(NC(=O)C3CCCCC3C(=O)O)cc21 (stereo unspecified) | TRUE |
| O=S(=O)(CCC[C@H]1[C@@H](CCOCc2ccccc2)C2CCCN1O2)c1ccccc1 (stereo partly specified) | FALSE |
| COc1ccc2cc(CN3CCC(C4CCN(Cc5ccc6cc(OC)ccc6c5)CC4)CC3)ccc2c1 | TRUE |
| O=C(O)[C@H]1[C@@H](C2CCCCC2)O[C@@H](C2CCCCC2)O[C@H]1C(F)(F)F | FALSE |
| CN(C)c1ccc(C(c2ccc(Cl)cc2)c2ccc(N(C)C)cc2)cc1 | TRUE |
| BrC/C=C/C[P+](c1ccccc1)(c1ccccc1)c1ccccc1 | TRUE |
| O=CC(=C(I)I)c1ccccc1 | TRUE |
| Cc1ccc(N(C=O)c2c([N+](=O)[O-])cc([N+](=O)[O-])c3c2=[N+]([O-])CN=3)cc1 | TRUE |
| CCOC(=O)/C=C1\CCCn2c1ncc(C(=O)OCC)c2=O | FALSE |
| O=[N+]([O-])c1ccc2nnnn2c1 | FALSE |

====

Assay text: NCI Yeast Anticancer Drug Screen. Data for the mgt1 strain (AID 153)
Conditions: S. cerevisiae mgt1 mutant growth inhibition; at 100.0 µM
This is part of a sample that, as a whole, favours compounds with a hit. Of some 79,000 tested, about 15% had one in any assay. Calls of active or inactive are those of the source. Rule as the data show it: active = growth inhibition above about 70%; inactive = the rest.
Outcomes: active, inactive

| Molecule | Group |
| --- | --- |
| CCOc1ccccc1N1C(=O)CC(Sc2ccccc2N)C1=O (stereo not given) | inactive |
| CCCCCCC(CCl)c1sc(-c2csc(CCNC(=O)OC(C)(C)C)n2)nc1C(=O)OC (stereo not given) | active |
| O=C1C=CC(=Nc2ccc3c(c2)Cc2cc(Cl)ccc2-3)O1 | active |
| CCOC(=O)/C=C1\CCCn2c1ncc(C(=O)OCC)c2=O | inactive |
| CC[C@]1(O)C[C@H]2CN(CCc3c([nH]c4ccccc34)[C@@](C(=O)OC)(c3cc4c(cc3OC)N(C)[C@H]3[C@@](O)(C(=O)OC)[C@H](OC(C)=O)[C@]5(CC)C=CCN6CC[C@]43[C@@H]65)C2)C1 | inactive |
| N#C/C(=C1C=C/C(=N\O)C(Cl)=C\1)c1ccccc1 | inactive |
| O=C1OC(c2ccc(Cl)cc2)Sc2ccccc21 (stereo not given) | active |
| Cc1ccc2oc(-c3cccc(N)c3)nc2c1 | inactive |
| O=C1OC(/C=C/c2ccccc2)Sc2ccccc21 (stereo not given) | inactive |
| O=C1c2ccc(O)cc2C(=O)c2c(O)ccc(O)c21 | active |

====

Recorded growth inhibition by entry
Assay text: NCI Yeast Anticancer Drug Screen. Data for the wt2 strain (AID 169);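 note: 0% = growth of vehicle-treated yeast cultures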
Conditions: S. cerevisiae wt2 strain growth inhibition; at 11.0 µM; hits give high values
The panel holds about 79,000 compounds, 15% with a hit somewhere; the sample as a whole holds those more often.

| Compound | growth inhibition / % |
| --- | --- |
| COc1ccc2nc(N/N=C/c3sccc3C)cc(C)c2c1 | 27 |
| c1cc(Nc2ccc3c(c2)OCO3)c2cc(C3CCCCC3)ccc2n1 | -2 |
| COc1cc(NCCCCCNC(C)C)c2ncccc2c1Cl | 0 |
| Cc1ccc(P(c2ccc(C)cc2)c2ccc(C)cc2)cc1 | -15 |
| COC(=O)C1(N2CCOCC2)CCC([C@@H](c2ccccc2)C(C)[N+](=O)[O-])C1 (stereo partly drawn) | -4 |
| COc1ccc2c(Cc3c4ccccc4cc4ccccc34)cncc2c1O | 18 |
| Cc1cc(NC(=S)SCc2ccc(Cl)cc2)ccc1Cl | 56 |
| Cc1ccc2c(/C=C/c3ccc(N(C)C)cc3)ccnc2c1C | -4 |
| S=c1[nH]nc(Cc2ccccc2)c(=S)[nH]1 | 62 |
| c1ccc(N/N=C2\CC(c3ccccc3)Oc3ccccc32)cc1 (stereo not drawn) | 5 |
| Cc1nc2ccc(NCCN(C)C)c3c(=O)c4ccccc4n1c23 | -43 |
| CC(C)c1ccc(C2NC(=S)NC3=C2c2ccccc2C3=O)cc1 (stereo not drawn) | 14 |
| Cc1ccc(S(=O)(=O)N/N=C/c2c(O)ccc3ccccc23)cc1 | 43 |
| Cc1cnccc1N=Nc1ccc(N(C)C)cc1 | 2 |
| O=Cn1c2ccccc2c2ccccc21 | -7 |
| CCC(C)C(=O)OCC(=O)c1ccc(-c2ccccc2)cc1 (stereo not drawn) | -1 |
| O=C(/C(=C/c1ccccc1)CBr)c1ccccc1 | 62 |
| CCN(CC)CCSc1c2ccccc2nc2cc(NCC(=O)Nc3ccccc3-c3ccccc3NC(=O)CNc3ccc4c(SCCN(CC)CC)c5ccccc5nc4c3)ccc12 | 2 |
| CN(C)CCNC(=O)c1cccc2nc3c4ccccc4c4ccccc4c3nc12 | 29 |
| Oc1ccc(Br)cc1C=Nc1cccc(C(F)(F)F)c1 | 0 |
| Cc1cnc(/C=N\NC(N)=S)c2cccc(N)c12 | 5 |
| CCN(CC)c1cccc(Nc2nc3ccccc3s2)c1 | -1 |
| Cc1ccc(N(C=O)c2c([N+](=O)[O-])cc([N+](=O)[O-])c3c2=[N+]([O-])CN=3)cc1 | 46 |

Cited source: PubChem BioAssay (NCI)
